Cited source: the supplement of paper PMC5908809

# Tested on: normal primary NK cells, pool 3 (3 donors) (IL-2 2.5 ng/mL);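 note: normalised to DMSO-only wells as negative and benzethonium chloride as positive control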
# methodSummary: percent inhibition of viability; higher = more inhibition
# measurementConditions: 72 h; 100000 nM
Kindly state percent inhibition of viability for each of the entries shown.

Sure, the documented percent inhibition of viability for Cn1nnc2c(C(N)=O)ncn2c1=O [Temozolomide] (max concentration tested 100000 nM) is 17.2%

Sure, the documented percent inhibition of viability for CCN(CC)CCCC(C)Nc1ccnc2cc(Cl)ccc12 (centres undefined) [Chloroquine] (max concentration tested 100000 nM) is 101%

Sure, the documented percent inhibition of viability for Oc1c2ccccc2c2c3c(cccc13)N=N2 (max concentration tested 100000 nM) is 43.7%

Sure, the documented percent inhibition of viability for N.N.[Cl][Pt][Cl] [Cisplatin] (max concentration tested 100000 nM) is 96.7%
